Hello, the source for this data is patent US11510931B2, in case you need it.

- PROTOCOL_NOTES: Ocular biodistribution of PS after topical eye drops in New Zealand white rabbits (HPLC)
- Type: in vivo, rabbit
- TEST_CONDITIONS: New Zealand white, rabbit, conjunctiva, topical, 5.4 % PS, 3 h; topical, Poloxamer 407 in-situ gel, 5.4% PS; read-out: PS in Conjunctiva
TEST_READOUT: concentration at 3 h

Return reported concentration at 3 h; argument: CCOP(=O)(OCC)OCCCCOC(=O)CC1=C(C)/C(=C/c2ccc([S+](C)[O-])cc2)c2ccc(F)cc21 (stereo not shown) [PS, phosphosulindac]
5.6 µM

###

- PROTOCOL_NOTES: Ocular biodistribution of PS after topical eye drops in New Zealand white rabbits (HPLC)
- Type: in vivo, rabbit
- TEST_CONDITIONS: New Zealand white, rabbit, lacrimal gland, topical, 3.5 % PS solution (eye drops), 1 h; topical eye drops, 3.5% PS solution in propylene glycol; read-out: PS in Lacrimal gland
TEST_READOUT: concentration at 1 h (nM)
State just the number; it will be interpreted in nM.

Item CCOP(=O)(OCC)OCCCCOC(=O)CC1=C(C)/C(=C/c2ccc([S+](C)[O-])cc2)c2ccc(F)cc21 (stereo not shown) has what recorded concentration at 1 h?
100
